Test system: MS2 coat protein
Assay: apparent KD of MS2 coat protein; designed switch direction (-1 OFF switch, 1 ON switch): -1; higher = weaker reporter binding
Conditions: Eterna round: R95; input ligand: FMN 200 uM
PARAMETER: apparent KD of MS2 coat protein (nM)
Kindly provide the numeric value in nM only, without the unit symbol.

GET /values?readout=apparent KD of MS2 coat protein&item= GGAAGACAUGAGGAUCACCCAUGUAAGGAUAUCGAAGGUAAGAGAGGAAAGAAGGGAACGAGAAGGUACAGGUG [JR_Exclu1_Sub095] (puzzle: Exclusion 1) 102

***
Report apparent KD of MS2 coat protein for AGUACUGACACGUCGGUGUUAGUACAAUAAGCUUGUGAAACAUGAGGAUCACCCAUGUCCUCAUAAGCUCGUCUUAU [salish99_TOv2_r3_081] (puzzle: Sensor v3, turn-off variant 2) please. 17

Please do the same for GUGGAGUAAGGAUAUACAUGAGGAUCACCCAUGUGAGGGUAUGAGAAGGGAAUGAGAGGUAGAAGGUACGAGGA [JR_Exclu3_Sub069] (puzzle: Exclusion 3) as well. 108

Continue with GAGUGACAUGAGGAUCACCCAUGUGAGGAUAUGCGAUGGACCAAAUUAACAAUAGAAGGCAGAAGGCGCAUAAA [Exclusion 1 V9] (puzzle: Exclusion 1) 41.4

###

System: MS2 coat protein
Assay: apparent KD of MS2 coat protein; designed switch direction (-1 OFF switch, 1 ON switch): -1; higher = weaker reporter binding
Settings: input ligand: none
PARAMETER: apparent KD of MS2 coat protein

Which measured apparent KD of MS2 coat protein value corresponds to GUAAAUCAUGUAGGAUAUGCGUGGCGAAGCUAUGCAGAAGGACAUGAGGAUCACCCAUGUGCUUCCGUCUGAGAACAGACGGAG [Mat - Exclusion NG 1 - Mod of JL - D28] (Eterna round: R96, puzzle: Exclusion NG 1) ? 0.244 µM

Please do the same for GUGAGGCCAGUGAGGAUAUGUGUACAACUACGUGCAUAGAAGGCACAUGAGGAUCACCCAUGUGAAUUCCCAGG [Eternabot (L1) Solution 65] (Eterna round: R97, puzzle: Brourd's mod of Exclusion 4) as well. 0.0144 µM

Now try CUCGGGCUGGUGAGGAUAUCGGGCUCUAAAGGGCUCGAGAAGGCACAUGAGGAUCACCCAUGUAAUGGCUCGGG [-29.3, -27.9 kcal, A 23%, 4-4bis] (Eterna round: R97, puzzle: Brourd's mod of Exclusion 4) . 0.0245 µM

Further cases:
Fill in the blank: the reported apparent KD of MS2 coat protein of GUGAGCAGACGGAGAUCCUACAUGAGGAUCACCCAUGUCUCACUAGCUUUUUGCUCGUCUUAUCCUCCUCUGUUCUC [Elimod 25 - Jieux - Sensor, turn-off variant 1] (Eterna round: R97, puzzle: Sensor, turn-off variant 1) is ____. 0.201 µM

Subsequent entry: ACAUGAGGAUCACCCAUGUCCGGCUGGUCUGUUUCGGCUGUCGAGGAUAUAGUUCGGUGUUCGCGCUAGAAGGUGGGAGCUGGC [Aenatbe mod 58] (Eterna round: R96, puzzle: Exclusion NG 3) 0.134 µM

Would you kindly repeat that for AAUGAUUGACGAGGAUAUUGUGUUAGAUCACGACGAGAAGGCGUUUGUCACAUGAGGAUCACCCAUGUGAGCCUUGUGGAUAGA [Ex NG1 #76] (Eterna round: R96, puzzle: Exclusion NG 1) ? 0.0215 µM

How about this sequence: GCUGCAAGAGGAUAUACAUGAGGAUCACCCAUGUGGGAUCGCGUUCUGGAUCAGGACUGUAGAAGGUUUGUGCG [Eternabot (L1) Solution 63] (Eterna round: R97, puzzle: Exclusion 3) 0.0913 µM

Param item: AGCUGUGGCCGAGGAUAUACACAUGAGGAUCACCCAUGUAGGCGCGGAUACGCGCUAAAAUAAUUGUAGAAGGCGGUCUCAGCA [Eli eng2 - 054] (Eterna round: R96, puzzle: Exclusion NG 2) 0.0106 µM

For AACUCACAUGAGGAUCACCCAUGUGAGGAUAUGGUUUCGCUGGCCGUAGCCAGUGGAACCAGAAGGCGCGUGAU [Mat - Exclusion 1 - JL Mod - D26] (Eterna round: R97, puzzle: Exclusion 1) then? 0.0589 µM

###

Test system: MS2 coat protein
Test: apparent KD of MS2 coat protein; designed switch direction (-1 OFF switch, 1 ON switch): -1; higher = weaker reporter binding
Settings: input ligand: FMN 200 uM
PARAMETER: apparent KD of MS2 coat protein (nM)
Note: unit nM is implicit; provide only the numeric part.

Please review the following examples before continuing.
What value of apparent KD of MS2 coat protein has been recorded for this entry: CAGUACUGAGGAUAUACAUGAGGAUCACCCAUGUGUUCCAGCUAGGAGACUAGCAAAAGUAGAAGGCAGUACUG [salish99_ex3_r3_074] (Eterna round: R96, puzzle: Exclusion 3) 523

Next sequence: GGAAGGCGAGGAUAUGCAAUAAUACACUAAUUAAUGUGAAAACAUGAGGAUCACCCAUGUAGAAGGCGCGAGAA [AK-MS2ROC-r4-exclusion2-5] (Eterna round: R97, puzzle: Exclusion 2) 21.2

Further cases:
Using the record for UACGAGUUAGGAUAUGCAAUGGGCUCGCUUUCCUUCGAUAAACUUGAGGAUCACCCAAGUAGAAGGAACUUGUA [Mod 36 - Jieux - Exclusion 2] (Eterna round: R97, puzzle: Exclusion 2) , report its apparent KD of MS2 coat protein. 19.9

Ok, now CGUGAGCGCGUCAGGAUAUGGCGGCGGCGGCGGCGCCAGAAGGGACAUGAGGAUCACCCAUGUUGCGUGCGUGG [Prefect Broudrd's mod of Exclusion] (Eterna round: R97, puzzle: Brourd's mod of Exclusion 4) 73

And then ACAUGAGGAUCACCCAUGUCCGGCUGGUCUGGUCCGGCUGUCGAGGAUAUAGUCCGGUGUUCGCGCUAGAAGGCGGGAGCUGGA [Aenatbe mod 50] (Eterna round: R96, puzzle: Exclusion NG 3) , what is it? 144

Then ACAUGAGGAUCACCCAUGUACACGUAAUGGCUCAUGUAGAGUGAGGAUAUGUGUGACGAACGAGCACAGAAGGCACAAGACUGG [Deportation 12 - Jieux - Exclusion NG 3] (Eterna round: R96, puzzle: Exclusion NG 3) ? 51.8

Now the sequence CCACGUCCGUACGUAUACUUGUCUCCUGAAAGAAAGGGCACAUGAGGAUCACCCAUGUUUUUGCUCGUCUUAUGAGC [JR_Sensorv2_tov2_Sub714] (Eterna round: R96, puzzle: Sensor v2, turn-off variant 2) 20.4

Again, but for UGCCGUUGAGGAUAUACGUAGAAAUAGAUUCAUGUAAAACUACAUGAGGAUCACCCAUGUAGAAGGCAAUGGCU [Mat - Exclusion 2 - JL Mod - D47] (Eterna round: R97, puzzle: Exclusion 2) 221

Try UGAUCUAGCGGAGGAUAUACAUGAGGAUCACCCAUGUAUAGGCCAUCUGGUGACAGGUGGAACAUGUAGAAGGCCGCUAGAUCU [JL ENG2 3.81] (Eterna round: R96, puzzle: Exclusion NG 2) next. 35.9

Cool, now GAUUAACAUGAGGAUCACCCAUGUGAGGAUAUGGACUUGCCCACUUACCCAUUAGAGUCUAGAAGGCGCAUCUC [1986#2\9] (Eterna round: R97, puzzle: Exclusion 1) 25.7

Another sequence to check: GCAGUAACAUGAGGAUCACCCAUGUGGAACUCGUGAAUAAGCGAGGAUAUCUCAAGAUAUCAAAGAGAGAAGGCGUACACUGCA [Qulege] (Eterna round: R96, puzzle: Exclusion NG 3) 490

Now try GAUCAACAUGAGGAUCACCCAUGUCAGGAUAUCUAUCAAGUGAGCCUAUCACAAUUUGGGAGAAGGGACCUAAU [Eternabot (L2) Solution 51] (Eterna round: R97, puzzle: Exclusion 1) . 35.1

###

Measured apparent KD of K4 kissing-loop reporter, listed per entry for reference.
System: K4 kissing-loop RNA reporter;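 note: bound reporter read as fluorescence of individual clusters on recovered sequencing chips by microscopy, with normalized cluster intensities fitted with a binding model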
Test: apparent KD of K4 kissing-loop reporter; higher = weaker reporter binding
Settings: Eterna round: R107; input ligand: tryptophan 2.4 mM
Numbers only; they are read as µM.

Example cases with answers are listed next.
Recorded apparent KD of K4 kissing-loop reporter for UUACGGUCCUCGGCCGCCACUCAUAGUGAUGUUAUGCUGCCUGAAGGCACCGGACCUGGAUAUCAGAGGACCGGGAGGCCAUUCG [theeternabot_exclusion_KL_Trp_B_6] with K4 kissing-loop RNA reporter, please? 0.544

Query CGGAUGUAGUGAUGUUAUAUAAGAUGUAGACGAGGACCGGUACGGCCGCCACUCGAAACGGCUACUAGCGCGUUGCGAGGUGUGC [ExTryptoA.CI] next 0.514

Param item: ACCAUCAAAGAUGGCCAGGACUCAACUGAUACCAGAGUGAAAACACUCCCUUGGCAGCAGGUGAGUGAUGUUCACGAGUCCUGGA [Omel KL Theo A SS B v7] 0.147

How about this sequence: UUUAAAUAUAGUGAUGUUAUAUAACAAUGACGAGGACCGGUACGGCCGCCACUCGAGAGAGAUAAUGGUCGUUAGAAUCUAACGC [AstrosSSTryA#5] 0.484

Queued: CUCGAGUGAUGUUCGAUUAUGUAUACAGAUACCAGUGAAUUUUAACACCCUUGGCAGCUGGUAGAAUCUUUGUAAUUUUAACUAG [JR_ExcTheophyA_Sub002] 0.134

Quick one: UUUGGUUUCUCGGCCGCCACUCGUUGGUUAUGGGCUUCAGGGAUAUAGUGAUGUUAUGUAUAGAAGAGGACCGGGAGAAGGAAGG [ExTryptoB.Dq] 0.269

Try this sequence too: "GGUAGCAUGGCGGCCGCCACUUCAAUUGGAGUGAUGUUCCAAGGCAUCGCGAAAGCGAUGCCAGGAAGGACCGGGCCAUGCUACC" 0.112

// same read-out, input: AAUAAAAUCACGGCCGCCACUGAUUUUUUUAUUAGGAGUGAUGUUCCUUUGUCUAUAUACCUUAACAGGACCGGGUGAAUAUUUA [JR_SSTryptoB_Sub022] 0.0521

Follow-up entry: UGAUACCAGACGGCCGCCACUCCCGUAAGUCAAAGACUUACCAAGAGAAUCGUCCAGUGAUGUUGGAGGACCGGGUCUGGUAUCU [FiskerMod 8 - Jieux - Exclusion - Tryptophan B] 0.682

Now the sequence CCAUUCAUCAGAAGGAGCGUCAAGUGAUGCUAUCCAGUGAUGUUGGAUAGCACGGAACAGUGACAGGUAGGUCGCUGAUGAGAGC [Arg B SS t8] 0.131

Next:
Under K4 kissing-loop RNA reporter: apparent KD of K4 kissing-loop reporter value of AGAGAUAUAUGAGGAUAUGGGUUAGUUAAUGAGUUAGUUUUAGUGUUGUUUGGUUAGUGAUGUUAUUUAGAAGGCGUGAGUGAUG [cqqbmullin] ? 0.0662

Also GGAUCCGCCAGUGAUGUUGGAGAAAACUCCAAGGAUAUGACGAAAGUCAGAAGGUGGUAGACUGGACAAAGUCCGGUCGGAUCCA [FmnA 26 #SwitchBubble #K4Early] , if possible. 0.442
